# STUDY_TARGET: bovine cerebral TPK1 (Bos taurus, UniProt A0A3Q1MT31)
# Construct: from tissue; host or cells: bovine brain (cerebrum)
# Sequence (A0A3Q1MT31 1-419): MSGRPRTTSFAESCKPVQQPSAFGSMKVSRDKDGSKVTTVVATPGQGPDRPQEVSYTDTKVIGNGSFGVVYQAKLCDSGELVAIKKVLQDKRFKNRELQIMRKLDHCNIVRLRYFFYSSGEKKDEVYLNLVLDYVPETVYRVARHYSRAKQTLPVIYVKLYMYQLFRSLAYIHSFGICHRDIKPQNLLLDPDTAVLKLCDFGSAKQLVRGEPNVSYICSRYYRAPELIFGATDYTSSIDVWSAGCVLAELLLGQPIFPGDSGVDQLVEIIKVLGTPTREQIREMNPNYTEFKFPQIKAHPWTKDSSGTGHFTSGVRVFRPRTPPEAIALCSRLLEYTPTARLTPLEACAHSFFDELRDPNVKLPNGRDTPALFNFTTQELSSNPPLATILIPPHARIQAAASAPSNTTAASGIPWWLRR
# EXPERIMENTAL_PROTOCOL: Inhibitory activity against P-GS1 phosphorylation by bovine cerebral TPK1
# Type: biochemical
# CONDITION_DETAILS: 41.7 μM [γ-32P]ATP, 25° C., 2 hours, pH 6.5
Reported IC50 values for the following compounds.
The response must be a number in nM with no trailing unit.

Cn1c(N2CCO[C@@H](c3ccc(F)cc3)C2)nc(-c2ccncn2)cc1=O	5
Cn1c(N2CCOC(c3cc4ccccc4o3)C2)nc(-c2ccncn2)cc1=O (centres unmarked)	4.2
Cn1c(N2CCOC(c3ccc(CN4CCCC4)cc3)C2)nc(-c2ccncn2)cc1=O (centres unmarked)	2.1
Cn1c(N2CCCC(C(=O)c3ccccc3)C2)nc(-c2ccncn2)cc1=O (centres unmarked)	1.1

Q: Short answer please: IC50, bovine cerebral TPK1 (Bos taurus, UniProt A0A3Q1MT31), entry COc1ccc(C#N)cc1C1CN(c2nc(-c3ccncn3)cc(=O)n2C)CCO1 (centres unmarked)
A: 0.78

Q: Short answer please: IC50, bovine cerebral TPK1 (Bos taurus, UniProt A0A3Q1MT31), entry Cn1c(N2CCOC(c3c(Cl)cccc3Cl)C2)nc(-c2ccncn2)cc1=O (centres unmarked)
A: 0.27

Q: Short answer please: IC50, bovine cerebral TPK1 (Bos taurus, UniProt A0A3Q1MT31), entry Cn1c(N2CCOC(C(=O)c3ccccc3)C2)nc(-c2ccncn2)cc1=O (single isomer, unassigned) [Compound C790]
A: 0.64

Q: Short answer please: IC50, bovine cerebral TPK1 (Bos taurus, UniProt A0A3Q1MT31), entry COc1ccc(-c2ccccn2)cc1C1CN(c2nc(-c3ccncn3)cc(=O)n2C)CCO1 (centres unmarked)
A: 0.6

###

Reported pIC50 values for the following molecules.
# STUDY_TARGET: bovine cerebral TPK1 (Bos taurus, UniProt A0A3Q1MT31)
Scale explanation: pIC50 corresponds to minus log10 of a concentration expressed in moles per litre.

Sample answers from the record:
Cn1c(NCC(=O)c2cccc(Cl)c2)nc(-c2ccncn2)cc1=O [Compound A124]	7.96
COc1ccc(-c2ccc(OC)c(C3CN(c4nc(-c5ccncn5)cc(=O)n4C)CCO3)c2)cc1 (stereo not shown) [Compound B268]	8.77
Cn1c(NCC(=O)c2ccccc2)nc(-c2ccncn2)cc1=O [Compound A119]	7.62

Okay, next one:
Q: Which pIC50 value belongs to COc1ccc(Nc2ccccc2)cc1C1CN(c2nc(-c3ccncn3)cc(=O)n2C)CCO1 (stereo not shown) [Compound B269] ?
A: 8.96

###

# STUDY_TARGET: bovine cerebral TPK1 (Bos taurus)
READOUT_NAME: pIC50
Scale explanation: pIC50 corresponds to minus log10 of a concentration expressed in moles per litre.

COc1ccccc1-c1ccc(OC)c(C2CN(c3nc(-c4ccncn4)cc(=O)n3C)CCO2)c1 (stereo not shown) [Compound B267]	8.92
COc1ccc(-c2ccc(Cl)cc2Cl)cc1C1CN(c2nc(-c3ccncn3)cc(=O)n2C)CCO1 (stereo not shown) [Compound B263]	7.89
COc1ccc(CN2CCCC2)cc1C1CN(c2nc(-c3ccncn3)cc(=O)n2C)CCO1 (stereo not shown) [Compound B264]	9.22

Okay, next one:
Q: Which pIC50 value belongs to COc1ccccc1C1CN(c2nc(-c3ccncn3)cc(=O)n2C)CCO1 (stereo not shown) [Compound B084] ?
A: 8.92

###

# STUDY_TARGET: bovine cerebral TPK1 (Bos taurus)
READOUT_NAME: pIC50
Scale explanation: pIC50 corresponds to minus log10 of a concentration expressed in moles per litre.

Sample answers from the record:
Cn1c(N2CCOC(C(=O)c3ccccc3)C2)nc(-c2ccncn2)cc1=O (stereo not shown) [Compound C501]	9.25
Cn1c(N2CCO[C@@H](c3ccccc3F)C2)nc(-c2ccncn2)cc1=O [Compound B037]	8.52
COc1ccccc1[C@H]1CN(c2nc(-c3ccncn3)cc(=O)n2C)CCO1 [Compound B085]	9.06
COc1cc(F)cc(OC)c1[C@H]1CN(c2nc(-c3ccncn3)cc(=O)n2C)CCO1 [Compound B244]	9.77
COc1ncc(-c2ccc(OC)c(C3CN(c4nc(-c5ccncn5)cc(=O)n4C)CCO3)c2)c(OC)n1 (stereo not shown) [Compound B283]	8.72

Okay, next one:
Q: Short answer please: pIC50, bovine cerebral TPK1 (Bos taurus), entry Cc1cccc(C(=O)CNc2nc(-c3ccncn3)cc(=O)n2C)c1 [Compound A130]
A: 7.52

###

# STUDY_TARGET: bovine cerebral TPK1 (Bos taurus)
READOUT_NAME: pIC50
Scale explanation: pIC50 corresponds to minus log10 of a concentration expressed in moles per litre.

Cn1c(N2CCOC(c3ccc(F)cc3)C2)nc(-c2ccncn2)cc1=O (stereo not shown)	7.96
COc1ccc(N2CCCC2)cc1C1CN(c2nc(-c3ccncn3)cc(=O)n2C)CCO1 (stereo not shown)	8.92

Q: Short answer please: pIC50, bovine cerebral TPK1 (Bos taurus), entry COc1cccc(-c2ccc(OC)c(C3CN(c4nc(-c5ccncn5)cc(=O)n4C)CCO3)c2)c1 (stereo not shown)
A: 8.89

Q: Short answer please: pIC50, bovine cerebral TPK1 (Bos taurus), entry Cn1c(N2CCOC(c3cc4cc(F)ccc4n3C)C2)nc(-c2ccncn2)cc1=O (stereo not shown)
A: 8.16

Q: Short answer please: pIC50, bovine cerebral TPK1 (Bos taurus), entry Cn1c(N2CCOC(c3cccc(N4CCCC4)c3)C2)nc(-c2ccncn2)cc1=O (single isomer, unassigned)
A: 8.15

Q: Short answer please: pIC50, bovine cerebral TPK1 (Bos taurus), entry COc1cc(-c2ccc(F)cc2)ccc1C1CN(c2nc(-c3ccncn3)cc(=O)n2C)CCO1 (stereo not shown)
A: 8.92

Q: Short answer please: pIC50, bovine cerebral TPK1 (Bos taurus), entry Cn1c(N2CCOC(c3ccc(F)cc3Cl)C2)nc(-c2ccncn2)cc1=O (stereo not shown)
A: 8.46

###

pIC50 tested on bovine cerebral TPK1 (Bos taurus): recorded values
Scale explanation: pIC50 corresponds to minus log10 of a concentration expressed in moles per litre.

Sample answers from the record:
COc1ccc([C@H]2CN(c3nc(-c4ccncn4)cc(=O)n3C)CCO2)cc1	8.54
COc1ccc(-c2ccc(F)cc2)cc1C1CN(c2nc(-c3ccncn3)cc(=O)n2C)CCO1 (stereo not drawn)	8.34

Q: Short answer please: pIC50, bovine cerebral TPK1 (Bos taurus), entry COc1cc(C)c(C)cc1C1CN(c2nc(-c3ccncn3)cc(=O)n2C)CCO1 (stereo not drawn)
A: 8.96

All values here come from patent US7572793B2.
